Assign protein stability index to each entry below.
B1: RHOBTB3 (parent)
chain: DSCCPAGIFQAMCLLICAEMYQVS

Variants of: B1
test_method_notes: protein stability index of a GFP-peptide fusion (GPS, HEK-293T) (PSI 1-6); higher = more stable;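 further: lentivirally expressed fusions sorted by FACS into six bins by GFP to DsRed ratio, PSI derived from sequencing read proportions per bin multiplied by bin number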
setup_conditions: c terminus: a fixed tail appended
Keep the answer to the number alone.

I would be grateful if you could share the reported protein stability index for NSCCPAGIFQAMCLLICAEMYQVS [D1N] .
3.73

Now give it for DSCCPAGIFQAMCLLICAEMYAVS [Q22A] too.
3.15

And what about the variant DSCCPIGIFQAMCLLICAEMYQVS [A6I] ?
2.76

And for DSCCNAGIFQAMCLLICAEMYQVS [P5N] ?
3.01

Same question for DSCCPAGIFQAMCLLICCEMYQVS [A18C] please.
2.87

Then what about the variant DSCCPAGIFQAMCLYICAEMYQVS [L15Y] ?
1.98

Further, for DSCCPAGIFQAMCLLICAMMYQVS [E19M] ?
1.55

Another variant: DSCCPAGIFQAMYLLICAEMYQVS [C13Y]
2.77

And for SSCCPAGIFQAMCLLICAEMYQVS [D1S] ?
2.77

Item: DSCCPAGIFNAMCLLICAEMYQVS [Q10N]
2.37

Also DNCCPAGIFQAMCLLICAEMYQVS [S2N] ?
3.1

// provenance: the supplement of paper PMC10567573
